Source listed as patent US20200247894A1.

# target: T1, mouse IL-2Rγ endogenously expressed on MC/9 cells (mouse, UniProt P34902 23-369)
# T1 construct: whole, on cells
# T1 sequence (looked up): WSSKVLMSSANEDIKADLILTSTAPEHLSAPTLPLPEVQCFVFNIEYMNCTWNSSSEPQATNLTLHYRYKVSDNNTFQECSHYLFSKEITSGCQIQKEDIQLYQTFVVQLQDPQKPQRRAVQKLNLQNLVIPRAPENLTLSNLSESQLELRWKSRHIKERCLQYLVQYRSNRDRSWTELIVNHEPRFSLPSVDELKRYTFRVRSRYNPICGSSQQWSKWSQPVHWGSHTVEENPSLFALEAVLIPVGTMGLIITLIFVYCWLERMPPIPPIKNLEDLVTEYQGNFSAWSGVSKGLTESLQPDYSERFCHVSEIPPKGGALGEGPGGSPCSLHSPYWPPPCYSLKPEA
# methodSummary: flow cytometry, 10 ug/ml antibody, MC/9 cells (endogenous mouse IL-2Rg)
endpointLabel: Binding Ratio (Sample over unstained MFIs)
Note: the reply should be a number with no unit written.

Use the examples below as a reference point.
[
  {
    "binder": "H4H12863P (antibody, human IgG4 S228P, kappa, V domains shown, fully human anti-IL2Rg antibody, human IgG4) VH: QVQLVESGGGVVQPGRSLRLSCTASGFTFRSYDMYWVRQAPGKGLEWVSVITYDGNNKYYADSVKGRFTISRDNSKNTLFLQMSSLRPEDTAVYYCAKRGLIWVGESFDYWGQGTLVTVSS VL: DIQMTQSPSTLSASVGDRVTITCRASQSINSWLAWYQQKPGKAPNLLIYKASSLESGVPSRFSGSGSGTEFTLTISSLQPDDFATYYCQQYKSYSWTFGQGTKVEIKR",
    "assayResult": 1
  },
  {
    "binder": "H4H12858P (antibody, human IgG4 S228P, kappa, V domains shown, fully human anti-IL2Rg antibody, human IgG4; also called REGN9433) VH: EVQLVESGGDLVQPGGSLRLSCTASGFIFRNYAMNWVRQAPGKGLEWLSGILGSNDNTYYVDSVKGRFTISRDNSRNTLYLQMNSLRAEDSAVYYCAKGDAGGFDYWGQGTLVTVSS VL: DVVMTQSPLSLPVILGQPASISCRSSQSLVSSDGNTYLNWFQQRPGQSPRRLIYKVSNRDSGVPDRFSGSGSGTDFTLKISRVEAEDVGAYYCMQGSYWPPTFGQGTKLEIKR",
    "assayResult": 1
  }
]

Next binder, please.
Request: Quick check: Binding Ratio (Sample over unstained MFIs) of H4H12899P (antibody, human IgG4 S228P, kappa, V domains shown, fully human anti-IL2Rg antibody, human IgG4) VH: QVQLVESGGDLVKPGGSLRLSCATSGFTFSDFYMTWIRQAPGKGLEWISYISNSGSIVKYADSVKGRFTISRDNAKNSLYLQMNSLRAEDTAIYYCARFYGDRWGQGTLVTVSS VL: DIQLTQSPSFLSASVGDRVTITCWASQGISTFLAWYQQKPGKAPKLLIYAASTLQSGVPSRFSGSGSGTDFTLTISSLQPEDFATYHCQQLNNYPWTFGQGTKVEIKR ?
Result: 1
